# Protocol notes: Aqueous phase distribution coefficient, log P of the compound in 0.01 M NaOH
# Assay type: physicochemical
Label yes (1) when logP is strictly below 3; at or above that, label no (0).

[
  {
    "Smiles data": "CCCCCCCCN(C)/N=N/c1ccccc1C(=O)O",
    "Assigned category": "yes (1)"
  },
  {
    "Smiles data": "CN(CCO)/N=N/c1ccccc1",
    "Assigned category": "yes (1)"
  },
  {
    "Smiles data": "CCCN(C)/N=N/c1ccccc1C(=O)O",
    "Assigned category": "yes (1)"
  },
  {
    "Smiles data": "CN(C)/N=N/c1ccccc1I",
    "Assigned category": "no (0)"
  },
  {
    "Smiles data": "CCCCCCCCN(C)/N=N/c1nc[nH]c1C(N)=O",
    "Assigned category": "no (0)"
  }
]

Now examine the next entry.
In the record for "CN(C)/N=N/c1ccccc1CO" , is logP less than 3?
yes (1)
